biological target: MAPK14 (human); assay: TNF-alpha Release Inhibition (LPS-stimulated PBMCs); conditions: pbmc
Assay endpoint: IC50 (nM)
All answers are understood in nM, so give the number only.

Entry smiles | Units | IC50
COc1ccc2c(-c3ccncc3)c(-c3cccc(I)c3)[nH]c2c1 | nM | 100
CC(=O)Nc1ccc2c(-c3ccncc3)c(-c3ccc(F)cc3)[nH]c2n1 | nM | 100

Let's switch to this compound now.
// IC50 value for COc1ccc2c(-c3ccncc3)c(-c3cccc(Cl)c3)[nH]c2c1 : 125
